meta.source: patent US20240270821A1

# tgt: hGIPR (Homo sapiens)
# measurement_protocol: Functional cAMP activity in the presence of 1% HSA
# Type: cell-based
# experimental_setup: read-out: cAMP Rel EC50, hGIPR
Starred links: 1 amine or outer side, 2 acyl side, 3 side chain; linkers in the order of their positions; H or OH if unused. Non-standard residues stand in square brackets, D forms with d. Groups on a side chain read outwards from the residue. No end group written: not given here. *: point of attachment. C18 diacid = O=C(O)CCCCCCCCCCCCCCCCC(=O)*; αMePhe(2-F) = C[C@](N)(Cc1ccccc1F)C(=O)O; γGlu = O=C(O)[C@H](CCC(=O)[*:2])N[*:1]; αMe4Pal = C[C@](N)(Cc1ccncc1)C(=O)O; αMeY = C[C@](N)(Cc1ccc(O)cc1)C(=O)O; αMeF = C[C@](N)(Cc1ccccc1)C(=O)O; 4Pal = N[C@@H](Cc1ccncc1)C(=O)O; αMeL = CC(C)C[C@](C)(N)C(=O)O; αMeS = C[C@](N)(CO)C(=O)O; Orn = NCCC[C@H](N)C(=O)O; Dap = NC[C@H](N)C(=O)O; AEEA = NCCOCCOCC(=O)O; Aib = CC(C)(N)C(=O)O
value_kind: EC50 (nM)

substance="Y[Aib]QGTFTSD[4Pal]SQ[αMeL]LDKK([AEEA-γGlu-C18 diacid])AQ[αMe4Pal]AFIEWLIEGGPSSGAPPPSG[4Pal]-NH2 [Example 832]" tgt="hGIPR (Homo sapiens)" value_kind=EC50 recorded_measurement=18.6
substance="Y[Aib]QGT[αMePhe(2-F)]TSD[4Pal][αMeS]I[αMeL]LD[Orn]K([γGlu-γGlu-C18 diacid])AQ[αMe4Pal]EFI[dE][αMeY]LIEGGPSSGAPPPSGE-NH2 [Example 1150]" tgt="hGIPR (Homo sapiens)" value_kind=EC50 recorded_measurement=0.583
substance="H-Y[Aib]QGTFTSD[4Pal]S[Orn][αMeL]LDKK([AEEA-γGlu-C18 diacid])AQ[αMe4Pal]AFIEYLIE[Aib]GESSGAPPPSGS-NH2 [Example 223]" tgt="hGIPR (Homo sapiens)" value_kind=EC50 recorded_measurement=37.2
substance="H-Y[Aib]QGTFTSDFS[Orn][αMeL]LDKK([AEEA-γGlu-C18 diacid])AQ[Aib]AFIEYLLAGGPSSGAPPPEGE-NH2 [Example 99]" tgt="hGIPR (Homo sapiens)" value_kind=EC50 recorded_measurement=29.5
substance="H-Y[Aib]QGTFTSDYS[Dap][αMeL]LDKK([AEEA-γGlu-C18 diacid])AQ[Aib]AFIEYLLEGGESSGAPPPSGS-NH2 [Example 360]" tgt="hGIPR (Homo sapiens)" value_kind=EC50 recorded_measurement=78.3
substance="Y[Aib]QGT[αMePhe(2-F)]TSD[4Pal][αMeS]I[αMeL]LD[Orn]K([AEEA-γGlu-C18 diacid])AQ[αMe4Pal]EFI[dE][αMeY]LIEGGPSSGEPPPESE-NH2 [Example 1147]" tgt="hGIPR (Homo sapiens)" value_kind=EC50 recorded_measurement=0.831
substance="H-Y[Aib]QGT[αMePhe(2-F)]TSD[4Pal]SI[αMeL]LD[Orn]K([γGlu-γGlu-C18 diacid])AQ[αMe4Pal][Orn]FI[dE][αMeY]LIEGGPSSGEPPPETE-NH2 [Example 686]" tgt="hGIPR (Homo sapiens)" value_kind=EC50 recorded_measurement=0.542
substance="H-Y[Aib]QGT[αMeF]TSD[4Pal][αMeS]I[αMeL]LD[Orn]K([γGlu-γGlu-C18 diacid])AQ[αMe4Pal]EFI[dE][αMeY]LIEGGPSSGEPPPSGE-NH2 [Example 1171]" tgt="hGIPR (Homo sapiens)" value_kind=EC50 recorded_measurement=0.718
substance="H-Y[Aib]QGTFTSD[4Pal]SQ[αMeL]LDKK([AEEA-γGlu-C18 diacid])AQ[αMe4Pal]AFIEYLIE[Aib]GPSSGAPPPSGE-NH2 [Example 881]" tgt="hGIPR (Homo sapiens)" value_kind=EC50 recorded_measurement=30.1
substance="H-Y[Aib]QGT[αMePhe(2-F)]TSD[4Pal]SILLDKK([γGlu-γGlu-C18 diacid])AQ[Aib]AFIEYLEEGGPSSGAPPPSGEGE-NH2 [Example 621]" tgt="hGIPR (Homo sapiens)" value_kind=EC50 recorded_measurement=7.31
substance="Y[Aib]QGT[αMePhe(2-F)]TSD[4Pal][αMeS]I[αMeL]LD[Orn]K([AEEA-γGlu-C18 diacid])AQ[αMe4Pal]EFI[dE][αMeY]LIEGGPSSGEPPPEGTGE-NH2 [Example 763]" tgt="hGIPR (Homo sapiens)" value_kind=EC50 recorded_measurement=1.16

---

In this section we review reported pEC50 values for a set of substances.
# tgt: hGIPR (Homo sapiens, UniProt P48546)
# Sequence (P48546 22-466): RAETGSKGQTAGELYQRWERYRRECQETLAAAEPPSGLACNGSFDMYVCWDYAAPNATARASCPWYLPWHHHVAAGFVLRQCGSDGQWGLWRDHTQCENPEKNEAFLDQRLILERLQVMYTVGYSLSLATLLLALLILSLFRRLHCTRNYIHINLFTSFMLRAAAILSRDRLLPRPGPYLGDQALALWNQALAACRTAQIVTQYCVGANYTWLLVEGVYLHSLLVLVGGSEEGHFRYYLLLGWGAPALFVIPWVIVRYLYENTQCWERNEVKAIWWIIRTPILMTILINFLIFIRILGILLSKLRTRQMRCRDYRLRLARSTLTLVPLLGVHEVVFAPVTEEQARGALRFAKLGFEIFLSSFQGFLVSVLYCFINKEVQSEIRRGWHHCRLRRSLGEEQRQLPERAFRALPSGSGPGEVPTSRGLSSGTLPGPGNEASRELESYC
# measurement_protocol: Functional cAMP activation in the presence of 0.1% casein (no HSA);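 also: intracellular cAMP rise after 30 min at 37 °C read by HTRF against a standard curve, scaled between buffer alone (0%) and top control ligand concentration (100%), four-parameter fit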
# Format: cell-based
# experimental_setup: in the presence of 0.1% casein (no HSA); geometric mean; read-out: Relative cAMP EC50, hGIPR
pEC50: −log10 of the molar value. Starred links: 1 amine or outer side, 2 acyl side, 3 side chain; linkers in the order of their positions; H or OH if unused. Non-standard residues stand in square brackets, D forms with d. Groups on a side chain read outwards from the residue. No end group written: not given here. *: point of attachment. C20 diacid = O=C(O)CCCCCCCCCCCCCCCCCCC(=O)*; C18 diacid = O=C(O)CCCCCCCCCCCCCCCCC(=O)*; Phe(4-CN) = N#Cc1ccc(C[C@H](N)C(=O)O)cc1; αMePhe(2-F) = C[C@](N)(Cc1ccccc1F)C(=O)O; γGlu = O=C(O)[C@H](CCC(=O)[*:2])N[*:1]; αMe4Pal = C[C@](N)(Cc1ccncc1)C(=O)O; αMeY = C[C@](N)(Cc1ccc(O)cc1)C(=O)O; Hyp = O=C(O)[C@@H]1C[C@@H](O)CN1; αMeF = C[C@](N)(Cc1ccccc1)C(=O)O; 4Pal = N[C@@H](Cc1ccncc1)C(=O)O; αMeL = CC(C)C[C@](C)(N)C(=O)O; αMeS = C[C@](N)(CO)C(=O)O; Orn = NCCC[C@H](N)C(=O)O; AEEA = NCCOCCOCC(=O)O; Aib = CC(C)(N)C(=O)O
value_kind: pEC50

substance="H-Y[Aib]QGTFTSDFSK[αMeL]LDKK([AEEA-γGlu-C18 diacid])AQ[Aib]AFIEYLIE[Aib]GESSGAPPPSGS-NH2 [Example 216]" recorded_measurement=10.05
substance="H-Y[Aib]QGTFTSD[4Pal]SQ[αMeL]LDKK([Glu-Glu-γGlu-C18 diacid])AQ[αMe4Pal]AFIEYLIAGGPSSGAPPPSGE-NH2 [Example 1087]" recorded_measurement=9.68
substance="H-Y[Aib]QGTFTSD[4Pal]SQ[αMeL]LDKK([γGlu-γGlu-C18 diacid])AQ[αMe4Pal]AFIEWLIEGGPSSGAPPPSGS-NH2 [Example 872]" recorded_measurement=9.69
substance="H-Y[Aib]QGTFTSD[4Pal]S[Orn][αMeL]LD[Orn]K([Glu-γGlu-C18 diacid])AQ[Aib]AFIE[αMeY]LLEGGPSSGAPPPSGSEE-NH2 [Example 1066]" recorded_measurement=9.35
substance="H-Y[Aib]QGTFTSD[4Pal]SQ[αMeL]LDKK([AEEA-γGlu-γGlu-C18 diacid])AQ[αMe4Pal]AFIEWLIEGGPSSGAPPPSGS-NH2 [Example 871]" recorded_measurement=9.70
substance="H-Y[Aib]QGTFTSD[4Pal]S[Orn][αMeL]LD[Orn]K([γGlu-γGlu-C18 diacid])AQ[αMe4Pal][Orn]FIEYLLAGGPSSGAPPPSGSEE-NH2 [Example 1004]" recorded_measurement=9.28
substance="H-Y[Aib]QGTFTSDFS[Orn][αMeL]LDKK([AEEA-γGlu-C18 diacid])AQ[Aib]AFIEYLLEGG[Hyp]SSGAPPPGGS-NH2 [Example 234]" recorded_measurement=9.49
substance="H-Y[Aib]QGTFTSD[4Pal]S[Orn][αMeL]LD[Orn]K([γGlu-γGlu-C18 diacid])AQ[αMe4Pal]EFIEYLLAGGPSSGAPPPSGSEE-NH2 [Example 1003]" recorded_measurement=9.57
substance="H-Y[Aib]QGTFTSD[4Pal]S[Orn][αMeL]LD[Orn]K([γGlu-γGlu-C18 diacid])AQ[αMe4Pal]EFIE[αMeY]LIEGGPSSGAPPPSGSEE-NH2 [Example 973]" recorded_measurement=9.30
substance="H-Y[Aib]QGTFTSD[4Pal]SQ[αMeL]LD[Orn]K([dE-γGlu-C18 diacid])AQ[αMe4Pal]AFIE[αMeY]LIE[Aib]GPSSGEPPPSGSEE-NH2 [Example 1103]" recorded_measurement=10.14
substance="H-Y[Aib]QGT[αMePhe(2-F)]TSDYSKLLDEIAQK([AEEA-γGlu-C20 diacid])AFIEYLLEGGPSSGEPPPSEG-NH2 [Example 303]" recorded_measurement=9.94
substance="H-Y[Aib]QGTFTSD[4Pal]S[Orn][αMeL]LD[Orn]K([γGlu-γGlu-C18 diacid])AQ[αMe4Pal]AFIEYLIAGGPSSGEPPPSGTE-NH2 [Example 984]" recorded_measurement=9.63
substance="Y[Aib]QGTFTSD[4Pal]SQ[αMeL]LDKK([AEEA-γGlu-C18 diacid])AQ[αMe4Pal]AFIE[αMeY]LIEGGPSSGAPPPEGS-NH2 [Example 852]" recorded_measurement=9.47
substance="Y[Aib]QGTFTSD[4Pal]SQ[αMeL]LDKK([dE-γGlu-C18 diacid])AQ[αMe4Pal]AFIEYLIE[Aib]GPSSGAPPPSGSE-NH2 [Example 924]" recorded_measurement=10.10
substance="H-Y[Aib]QGTFTSD[Phe(4-CN)]S[Orn][αMeL]LDKK([AEEA-γGlu-C18 diacid])AQ[Aib]AFIEYLLE[Aib]GHSSGAPPPSGS-NH2 [Example 190]" recorded_measurement=9.51
substance="Y[Aib]QGTFTSDFS[Orn][αMeL]LDKK([AEEA-γGlu-C18 diacid])AQ[Aib]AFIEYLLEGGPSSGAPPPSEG-NH2 [Example 50]" recorded_measurement=9.54
substance="Y[Aib]QGT[αMeF]TSD[4Pal][αMeS]I[αMeL]LD[Orn]K([AEEA-γGlu-C18 diacid])AQ[αMe4Pal]EFI[dE][αMeY]LIEGGPSSGEPPPSGE-NH2 [Example 1165]" recorded_measurement=10.92
substance="H-Y[Aib]QGTFTSDFS[Orn][αMeL]LDKK([AEEA-γGlu-C18 diacid])AQ[Aib]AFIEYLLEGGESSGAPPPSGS-NH2 [Example 145]" recorded_measurement=9.27
substance="H-Y[Aib]QGTFTSDFS[Orn][αMeL]LDKK([AEEA-γGlu-C18 diacid])AQ[Aib]AFIEYLLAGGPSSGEPPPEGS-NH2 [Example 152]" recorded_measurement=9.59
substance="H-Y[Aib]QGTFTSD[4Pal]SQ[αMeL]LDKK([γGlu-γGlu-C18 diacid])AQ[αMe4Pal]AFIE[αMe4Pal]LIE[Aib]GPSSGEPPPSGE-NH2 [Example 1123]" recorded_measurement=10.00
substance="H-Y[Aib]QGTFTSD[4Pal]SK[αMeL]LDKK([AEEA-γGlu-C18 diacid])AQ[Aib]AFIE[αMe4Pal]LIE[Aib]GPSSGAPPPSGS-NH2 [Example 914]" recorded_measurement=10.24
substance="H-Y[Aib]QGTFTSDFS[Orn][αMeL]LDKK([AEEA-AEEA-γGlu-C18 diacid])AQ[Aib]AFIEYLLE[Aib]GPSSGAPPPSGT-NH2 [Example 165]" recorded_measurement=10.02
